The values you see were collected from BigSolDB 2.1.

- Condition summary: in n-butanol, 295.36 K
Measured metric: solubility (mole fraction)

Give solubility (mole fraction) for `CCCCCCCCCCCCCCCc1cccc(O)c1`
0.263

----------
- Condition summary: in tetrachloromethane, 294.42 K
Measured metric: solubility (mole fraction)
Just the number, please, no unit after it.

Return solubility (mole fraction) for the following compound: `CCCCCCCCCCCCCCCc1cccc(O)c1`
0.15

----------
- Condition summary: in toluene, 295.25 K
Measured metric: solubility (mole fraction)
Please respond with just the number, no unit label.

Item `CCCCCCCCCCCCCCCc1cccc(O)c1` : provide solubility (mole fraction)
0.122

----------
- Condition summary: in n-butanol, 302.94 K
Measured metric: solubility (mole fraction)
Please reply with the value in numeric form only.

// Input: `CCCCCCCCCCCCCCCc1cccc(O)c1` . Output its solubility (mole fraction) only.
0.349
